Data credit: ChEMBL document CHEMBL4619803

# RUN DESCRIPTION: Fraction unbound in mouse plasma
# Assay type: ADME, cell-free
# Lookup of reported fraction unbound keyed by entry
// keep it numeric: no unit symbol after the value

Solved cases below.
- MOLECULE: "Cc1cc(N2C[C@H]3CC[C@@H](C2)[C@@H]3Nc2nc3c(O[C@@H](C)C(F)(F)F)cccn3n2)sn1"
  fraction unbound: 0.034
- MOLECULE: "Cc1nsc(N2C[C@H]3CC[C@@H](C2)[C@@H]3Nc2nc3c(OCCC(F)(F)F)cccn3n2)n1"
  fraction unbound: 0.0521
- MOLECULE: "Cc1cc(N2C[C@H]3CC[C@@H](C2)[C@@H]3Nc2nc3c(OCC(F)(F)F)cccn3n2)sn1"
  fraction unbound: 0.018

Name the recorded fraction unbound of the item Cc1nnc(N2C[C@H]3CC[C@@H](C2)[C@@H]3Nc2nc3c(OC(C)C(F)(F)F)ccc(C(F)(F)F)n3n2)o1 (stereo partly drawn) in your answer.
0.044

Answer with the recorded fraction unbound for the molecule listed here: Cc1nsc(N2CC3CCC(C2)C3Nc2nc3c(-c4ccc(F)c(F)c4F)cccn3n2)n1 (stereo not drawn)
0.003

Give reported fraction unbound value for Cc1noc(N2C[C@H]3CC[C@@H](C2)[C@@H]3Nc2nc3c(OCC(F)(F)C(F)(F)F)cccn3n2)n1
0.061

Look up and report measured fraction unbound for this entry: Cc1nnc(N2C[C@H]3CC[C@@H](C2)[C@@H]3Nc2nc3c(O[C@@H](C)C(F)(F)F)ccc(C(F)(F)F)n3n2)o1
0.043
